target desc: T1, 4H4038-bA
T1 chain: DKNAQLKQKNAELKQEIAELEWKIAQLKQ
assay overview: two-hybrid library CCNG1;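 also: natural log of median RNA to DNA barcode read ratio; higher means stronger binding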
interaction score strictly under -0.1 means YES; at -0.1 or over means NO.

INSERT INTO assay_data (binder, assigned_label) VALUES
  ('DENAQLEQKIAELKQKNAELKWKIAQLKQ [4H1406-bA]', 'YES'),
  ('DKNAQLKQKIAELKQEIAELEWENAQLEQ [4H3907-bA]', 'YES'),
  ('DENAQLEQKIAELKQKIAELKWENAQLEQ [4H1387-bA]', 'NO');

Would you kindly verify if interaction score of DKNAQLKQKNAELKQEIAELEWKIAQLKQ [4H4038-bA] is strictly less than -0.1?
YES

Would you kindly verify if interaction score of DENAQLEQEIAELEQKIAELKWKNAQLKQ [4H1072-bA] is strictly less than -0.1?
NO

Would you kindly verify if interaction score of DKNAQLKQEIAELEQENAELEWEIAQLEQ [4H3601-bA] is strictly less than -0.1?
YES

Would you kindly verify if interaction score of DENAQLEQENAELEQKIAELKWEIAQLEQ [4H1193-bA] is strictly less than -0.1?
NO

Would you kindly verify if interaction score of DKNAQLKQEIAELEQEIAELEWKNAQLKQ [4H3592-bA] is strictly less than -0.1?
YES
